Data provenance is patent US10550105B2.

Molecular target: PARP7 (Homo sapiens (Human), UniProt Q7Z3E1)
Sequence (Q7Z3E1 whole entry): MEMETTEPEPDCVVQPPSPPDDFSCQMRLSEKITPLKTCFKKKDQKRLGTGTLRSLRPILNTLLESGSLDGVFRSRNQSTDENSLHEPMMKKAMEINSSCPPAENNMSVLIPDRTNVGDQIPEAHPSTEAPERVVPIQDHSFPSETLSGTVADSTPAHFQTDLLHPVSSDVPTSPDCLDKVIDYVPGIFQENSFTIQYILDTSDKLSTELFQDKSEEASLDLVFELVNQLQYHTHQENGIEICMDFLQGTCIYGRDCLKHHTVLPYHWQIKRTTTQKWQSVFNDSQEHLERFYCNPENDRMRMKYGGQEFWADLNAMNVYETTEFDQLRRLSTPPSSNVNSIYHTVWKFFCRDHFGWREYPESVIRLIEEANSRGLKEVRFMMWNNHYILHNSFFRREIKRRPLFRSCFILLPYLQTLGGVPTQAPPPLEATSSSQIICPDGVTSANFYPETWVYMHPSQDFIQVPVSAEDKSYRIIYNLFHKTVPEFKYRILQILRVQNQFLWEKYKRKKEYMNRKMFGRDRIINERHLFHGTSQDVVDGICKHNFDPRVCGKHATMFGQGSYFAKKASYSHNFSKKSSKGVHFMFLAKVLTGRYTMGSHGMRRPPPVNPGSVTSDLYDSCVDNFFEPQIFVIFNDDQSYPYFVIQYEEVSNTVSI
Assay: Enzymatic assay for inhibition of PARP7: TR-FRET displacement of biotinylated Probe A from the TIPARP active site
Conditions: Table A-1
Below, each of the molecules is paired with its reported IC50 value.

Here's what some known entries look like.
{"MOLECULE": "O=c1[nH]ncc(N2Cc3cccc(OCc4ccccn4)c3C2)c1C(F)(F)F", "IC50": "< 100 nM"}
{"MOLECULE": "O=C(C[C@H]1CC[C@H](COc2cn[nH]c(=O)c2C(F)(F)F)O1)N1CCN(c2ncc(C(F)(F)F)cn2)CC1 (single isomer, unassigned) [Example 574 Isomer B]", "IC50": "100 to 1000 nM"}
{"MOLECULE": "CC(=O)NCCOc1cccc2c1CN(c1cn[nH]c(=O)c1Cl)C2", "IC50": "100 to 1000 nM"}
{"MOLECULE": "N#Cc1ccc(N2CCN(C(=O)c3cccc(OCCOc4cn[nH]c(=O)c4C(F)(F)F)c3)CC2)nc1", "IC50": "< 100 nM"}
{"MOLECULE": "O=C(CCOC[C@H](Cc1cccnc1)Nc1cn[nH]c(=O)c1C(F)(F)F)N1CCN(c2ncc(C(F)(F)F)cn2)CC1", "IC50": "< 100 nM"}

stdin: Using the record for O=c1[nH]ncc(N2Cc3cccc(OCCN4CCNCC4)c3C2)c1C(F)(F)F , report its IC50.
stdout: < 100 nM

stdin: Using the record for CC(=O)N1CCN(C(=O)CCOC[C@@H]2c3ccccc3CN2c2cn[nH]c(=O)c2C(F)(F)F)CC1 , report its IC50.
stdout: < 100 nM

---

Target: PARP7 (Homo sapiens (Human))
Experiment: Enzymatic assay for inhibition of PARP7: TR-FRET displacement of biotinylated Probe A from the TIPARP active site
Details: Table A-1
pIC50: −log10 of the molar value.
Below, each of the compounds is paired with its reported pIC50 value.

{"COMPOUND": "CN1CCN(C(=O)CCOC[C@H]2c3ccccc3CN2c2cn[nH]c(=O)c2C(F)(F)F)CC1", "pIC50": "≤ 6.00"}

stdin: Using the record for N#Cc1ccc(N2CCN(C(=O)CCCOC[C@@H]3CCCN3c3cn[nH]c(=O)c3C(F)(F)F)CC2)nc1 , report its pIC50.
stdout: > 7.00

---

Target: PARP7 (Homo sapiens (Human), UniProt Q7Z3E1)
Test: Enzymatic assay for inhibition of PARP7: TR-FRET displacement of biotinylated Probe A from the TIPARP active site
Conditions: Table A-1
METRIC NAME: IC50

{"MOLECULE": "C[C@@H](COCCC(=O)N1CCC(Oc2ncc(C(F)(F)F)s2)C1)Nc1cn[nH]c(=O)c1C(F)(F)F (stereo partly drawn) [Example 720]", "SYSTEM UNDER TEST": "PARP7 (Homo sapiens (Human), UniProt Q7Z3E1)", "IC50": "< 100 nM"}
{"MOLECULE": "C[C@@H]1CCN(c2cn[nH]c(=O)c2C(F)(F)F)[C@@H]1COc1cccc(C(=O)N2CCN(c3ccc(C#N)cn3)CC2)c1 [Example 460]", "SYSTEM UNDER TEST": "PARP7 (Homo sapiens (Human), UniProt Q7Z3E1)", "IC50": "< 100 nM"}

We now examine a further molecule.
stdin: Request body: readout IC50, system PARP7 (Homo sapiens (Human), UniProt Q7Z3E1), query N#Cc1ccc(N2CCN(C(=O)c3cccc(OC[C@@H]4C[C@H](O)CN4c4cn[nH]c(=O)c4C(F)(F)F)c3)CC2)nc1 [Example 51] . Return the value.
stdout: < 100 nM
